- test-target: T1, human Nectin-4 extracellular antigen hNectin-4-His (human, UniProt Q96NY8 32-349)
- T1 construct: C-terminal 8xHis tag included
- T1 sequence: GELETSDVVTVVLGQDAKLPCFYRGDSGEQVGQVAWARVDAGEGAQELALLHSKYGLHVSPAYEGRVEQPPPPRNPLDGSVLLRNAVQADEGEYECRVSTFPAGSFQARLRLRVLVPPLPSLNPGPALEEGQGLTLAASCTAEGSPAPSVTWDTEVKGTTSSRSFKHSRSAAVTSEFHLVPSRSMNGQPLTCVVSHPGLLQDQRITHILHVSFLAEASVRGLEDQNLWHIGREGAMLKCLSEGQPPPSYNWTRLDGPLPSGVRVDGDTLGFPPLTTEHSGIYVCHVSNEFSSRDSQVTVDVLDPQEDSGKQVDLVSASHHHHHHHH
- measurement-notes: SPR, antibody on Protein A chip, 1:1 fit
Entries get a class label from measured kon. See ranges: bucket A (below 400000 M⁻¹ s⁻¹), bucket B (400000 M⁻¹ s⁻¹ to below 800000 M⁻¹ s⁻¹), bucket C (800000 M⁻¹ s⁻¹ or more)

- binder: "antibody 1F3-1E1 (antibody, human IgG1, kappa, V domains shown) VH: EVQLVESGGGLVQPGGSLRLSCAASGFSFDDYAMSWVRQAPGKGLEWVSIIYPTGSTNYYADSVKGRFTISRDNSKNTLYLQMNSLRAEDTAVYYCARAELLAFDVYTASDYWGQGTLVTVSS VL: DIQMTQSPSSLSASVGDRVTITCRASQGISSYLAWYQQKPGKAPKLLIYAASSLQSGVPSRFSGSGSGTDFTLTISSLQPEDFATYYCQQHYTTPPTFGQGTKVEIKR"
  category-label: "bucket C"
- binder: "antibody 1G8-1E10 (antibody, human IgG1, kappa, V domains shown) VH: EVQLVESGGGLVQPGGSLRLSCAASGDSFSTYAMSWVRQAPGKGLEWVSRISGSGDGKDYADSVKGRFTISRDNSKNTLYLQMNSLRAEDTAVYYCARQTEDRSYGYDLDYWGQGTLVTVSS VL: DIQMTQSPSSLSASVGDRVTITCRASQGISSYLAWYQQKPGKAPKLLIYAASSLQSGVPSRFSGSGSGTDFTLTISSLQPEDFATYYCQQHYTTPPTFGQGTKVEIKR"
  category-label: "bucket B"
- binder: "antibody 10F4-1 (antibody, human IgG1, kappa, V domains shown) VH: EVQLVESGGGLVQPGGSLRLSCAASGDSFTNYWMSWVRQAPGKGLEWVSGISQGGSYAYYADSVKGRFTISRDNSKNTLYLQMNSLRAEDTAVYYCAREYSDVVDYVSVRTPLDYWGQGTLVTVSS VL: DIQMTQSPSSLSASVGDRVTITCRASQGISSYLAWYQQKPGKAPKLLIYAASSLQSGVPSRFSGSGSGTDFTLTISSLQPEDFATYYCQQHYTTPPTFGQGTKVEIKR"
  category-label: "bucket B"
- binder: "antibody 10F4-1C3 (antibody, human IgG1, kappa, V domains shown) VH: EVQLVESGGGLVQPGGSLRLSCAASGYSFSDYWMSWVRQAPGKGLEWVSSIKQTGGVKHYADSVKGRFTISRDNSKNTLYLQMNSLRAEDTAVYYCAREYSDVVDYVSVRTPLDYWGQGTLVTVSS VL: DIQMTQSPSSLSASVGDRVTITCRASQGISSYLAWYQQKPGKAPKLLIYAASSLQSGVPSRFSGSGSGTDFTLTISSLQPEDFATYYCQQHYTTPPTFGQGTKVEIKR"
  category-label: "bucket A"
- binder: "antibody 10F4-1H6 (antibody, human IgG1, kappa, V domains shown) VH: EVQLVESGGGLVQPGGSLRLSCAASGFNFYDYDMSWVRQAPGKGLEWVSGIKTHSGGNGYADSVKGRFTISRDNSKNTLYLQMNSLRAEDTAVYYCAREYSDVVDYVSVRTPLDYWGQGTLVTVSS VL: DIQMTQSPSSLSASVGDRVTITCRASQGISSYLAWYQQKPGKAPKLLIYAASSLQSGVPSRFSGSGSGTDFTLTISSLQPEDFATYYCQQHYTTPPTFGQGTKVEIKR"
  category-label: "bucket A"
- binder: "antibody 10F4-1A1 (antibody, human IgG1, kappa, V domains shown) VH: EVQLVESGGGLVQPGGSLRLSCAASGFSFDNYDMSWVRQAPGKGLEWVSSIKPGSAYKFYADSVKGRFTISRDNSKNTLYLQMNSLRAEDTAVYYCAREYSDVVDYVSVRTPLDYWGQGTLVTVSS VL: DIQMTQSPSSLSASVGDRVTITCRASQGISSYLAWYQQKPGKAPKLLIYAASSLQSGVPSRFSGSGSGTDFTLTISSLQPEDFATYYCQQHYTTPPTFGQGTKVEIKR"
  category-label: "bucket B"
- binder: "antibody 10F4-5 (antibody, human IgG1, kappa, V domains shown) VH: EVQLVESGGGLVQPGGSLRLSCAASGFIFDGYDMSWVRQAPGKGLEWVSVIKDHGGYKFYADSVKGRFTISRDNSKNTLYLQMNSLRAEDTAVYYCAREYSDVVDYVSVRTPLDYWGQGTLVTVSS VL: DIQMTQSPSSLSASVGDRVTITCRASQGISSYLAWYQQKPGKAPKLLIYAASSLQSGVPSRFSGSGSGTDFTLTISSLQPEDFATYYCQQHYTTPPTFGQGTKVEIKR"
  category-label: "bucket A"
- binder: "antibody 1F3-2F3 (antibody, human IgG1, kappa, V domains shown) VH: EVQLVESGGGLVQPGGSLRLSCAASGFNFSDYGMSWVRQAPGKGLEWVSRIDWDGGNTRYADSVKGRFTISRDNSKNTLYLQMNSLRAEDTAVYYCARAELLAFDVYTASDYWGQGTLVTVSS VL: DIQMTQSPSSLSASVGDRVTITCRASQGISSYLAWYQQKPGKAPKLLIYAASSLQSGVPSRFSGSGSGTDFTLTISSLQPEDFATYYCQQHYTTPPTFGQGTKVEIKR"
  category-label: "bucket C"
- binder: "antibody 1F3-2B1 (antibody, human IgG1, kappa, V domains shown) VH: EVQLVESGGGLVQPGGSLRLSCAASGYNFDNYAMSWVRQAPGKGLEWVSGIKPDSATTYYADSVKGRFTISRDNSKNTLYLQMNSLRAEDTAVYYCARAELLAFDVYTASDYWGQGTLVTVSS VL: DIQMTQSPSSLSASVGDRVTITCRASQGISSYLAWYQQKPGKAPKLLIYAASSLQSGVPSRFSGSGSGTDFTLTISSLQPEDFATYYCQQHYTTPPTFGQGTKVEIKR"
  category-label: "bucket C"

Taken from patent US20260144882A1.
